Data origin: the supplement of paper PMC9170038

# System: MS2 coat protein
# EXPERIMENTAL PROTOCOL: apparent KD of MS2 coat protein; designed switch direction (-1 OFF switch, 1 ON switch): -1; higher = weaker reporter binding
# SETTINGS: Eterna round: R95; input ligand: microRNA oligo, concentration not stated
OBSERVABLE: apparent KD of MS2 coat protein (nM)
Answer with a number only, understood to be in nM.

Take a look at these entries with their results.
SEQUENCE INPUT: AUAAAGAAUGUUAGGAUAUUGGUGAAUAGGCUGACUAAGAAGGAACAUGAGGAUCACCCAUGUAACAUGGAAAA [Tiinzaesqu] (puzzle: Brourd's mod of Exclusion 4)
apparent KD of MS2 coat protein [nM]: 24.5

SEQUENCE INPUT: GAUUAUGCGAGCUUUAGGGACAUGAGGAUCACCCAUGUUCGUCUUAUUAAUCUAGGUGCACUGACAUACCUAAAUCU [JMF 87] (puzzle: Sensor v3, turn-off variant 1)
apparent KD of MS2 coat protein [nM]: 30

SEQUENCE INPUT: GGGUGUCCAGUGAGGAUAUCCAGCGCUCAGGCGCAGGAGAAGGCACAUGAGGAUCACCCAUGUAGCUGAAGAAA [Geenra] (puzzle: Brourd's mod of Exclusion 4)
apparent KD of MS2 coat protein [nM]: 30.9

Could you now consider this next sequence?
IN: So what does the record say about apparent KD of MS2 coat protein for GGAUGUUAGGAGGAUAUCUGACGUCGAAAAGAAGGAGAAGGCCUGACAUGAGGAUCACCCAUGUGGUCAAAAGA [Eresinbi] (puzzle: Exclusion 6) ?
OUT: 110

----------
Reported apparent KD of K4 kissing-loop reporter values follow for various sequences
# Test system: K4 kissing-loop RNA reporter
# EXPERIMENTAL PROTOCOL: apparent KD of K4 kissing-loop reporter; higher = weaker reporter binding
# SETTINGS: Eterna round: R107; input ligand: arginine 13.2 mM
Answer with a number only, understood to be in nM.

Take a look at these entries with their results.
SEQUENCE INPUT: AGCUCAGAGUGACUCGAUAAGAGUCACAAACGAGGACCGGUACGGCCGCCACUCGAAAUAAUGAGAGUGAUGUUCUCGCUGAGCA [#SwitchBubble 2 #StaticStem #K4Late]
EXPERIMENTAL TARGET: K4 kissing-loop RNA reporter
OBSERVABLE: apparent KD of K4 kissing-loop reporter
MEASURED RESULT: 98.6
//
SEQUENCE INPUT: UGUCAUUGGUCGGCCGCCACUUCAUGUAGAGUGAUGUUUUGUAGGACGGAUCGAAAGAUCUGUCGAAGGACCGGGACCGAUGACU [FiskerMod 15 - Jieux - Same State - Tryptophan B]
EXPERIMENTAL TARGET: K4 kissing-loop RNA reporter
OBSERVABLE: apparent KD of K4 kissing-loop reporter
MEASURED RESULT: 84.7
//
SEQUENCE INPUT: AGAAGAGUGAUGUUCUUCUAUAUCUCAGAAGGAGCGACAUAAAUGUCAGGUAGGUCGCUGAGAUGAAAUCUCACACAGAUCUUGG [Arg A SS t8]
EXPERIMENTAL TARGET: K4 kissing-loop RNA reporter
OBSERVABLE: apparent KD of K4 kissing-loop reporter
MEASURED RESULT: 149
//
SEQUENCE INPUT: UGUGAUGUGUAGUGUUAUGUUUUGCGGGAUACCAGAGUCUUUUUAUUCCCUUGGCAGCUUGAGUGAUGUUUGAUGCUGUUCUUGU [cxxdmullin]
EXPERIMENTAL TARGET: K4 kissing-loop RNA reporter
OBSERVABLE: apparent KD of K4 kissing-loop reporter
MEASURED RESULT: 349
//
SEQUENCE INPUT: CGCAGUGAUGUUGCGAGUUUGAUCAGGGAAGGAGCGGCUCAGAAGCCAGGUAGGUCGCCCACGCAGUGAUGUUGUGUAUUCGGGU [Exclusion Arginine A GF 1]
EXPERIMENTAL TARGET: K4 kissing-loop RNA reporter
OBSERVABLE: apparent KD of K4 kissing-loop reporter
MEASURED RESULT: 88.1
//
SEQUENCE INPUT: AGUGUUAGGUUAGAUACCAGCCGUCUGUGAGUAACCCACAGACCGCCAGUGAUGUUGGCAGGCCCUUGGCAGCUAACAGGACAGA [Anesarerza]
EXPERIMENTAL TARGET: K4 kissing-loop RNA reporter
OBSERVABLE: apparent KD of K4 kissing-loop reporter
MEASURED RESULT: 226

IN: So what does the record say about apparent KD of K4 kissing-loop reporter for CUUCGAUUAACGGAUACCAGUCACUUGGGAGCCACACACAAGUGAGUGAUGUUCACUUGUGACCCUUGGCAGCCGUUAGUCGAAG [#05 K4 Theophylline B Exclusion] ?
OUT: 85

IN: So what does the record say about apparent KD of K4 kissing-loop reporter for ACUGAGUUGACGAAAGUCAACAAUUGAGAAGGAGCGCACGAAAGUGCAGGUAGGUCGCUCAGUCCAGUGAUGUUGGAUCAUCAGA [#17 K4 Arginine A Same State] ?
OUT: 558

IN: So what does the record say about apparent KD of K4 kissing-loop reporter for GCAUGGGUGCUUGCACAAGUGAUGUUUGGGCGAGGACCGGUACGGCCGCCACUCGUACGUUUAGUUAAAAGACAUCAUGCGAGUC [theeternabot_exclusion_KL_Trp_A_11] ?
OUT: 246

IN: So what does the record say about apparent KD of K4 kissing-loop reporter for UCUGGAGCAUAUGAUACCAGCAGUGAGAGACAGGAAGUAUAGUGAUGUUAUAUGAGAGAAUGCCCUUGGCAGCGUGUGUAGUGGG [SSTheophylB.N] ?
OUT: 137

IN: So what does the record say about apparent KD of K4 kissing-loop reporter for AACUCUCAGACACUUGAGUGAUGUUCAGGCCGAGGACCGGUACGGCCGCCACUCGGGUCUGAGAGAGGUUAUCAAAGAUAGCCAA [Omei KL Tryp A SS A v5] ?
OUT: 194

IN: So what does the record say about apparent KD of K4 kissing-loop reporter for AUCAUUAGUUCGGCCGCCACUCCAGUGAUGUUGGAGGGACGCAUAAUAUGCGCGCGGCCAACUAGGAGGACCGGGAACUUUAAGC [Intionge] ?
OUT: 122

IN: So what does the record say about apparent KD of K4 kissing-loop reporter for CCAGGACGAUGAGGAGGAUGAAUUACUGAAGGAGCGCAUAUGGUUGCAGGUAGGUCGCGGUGAACAAGUAUAGUGAUGUUAUAUC [SSArgA.S] ?
OUT: 971

----------
# Tested on: K4 kissing-loop RNA reporter;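 also: bound reporter read as fluorescence of individual clusters on recovered sequencing chips by microscopy, with normalized cluster intensities fitted with a binding model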
# EXPERIMENTAL PROTOCOL: apparent KD of K4 kissing-loop reporter; higher = weaker reporter binding
# SETTINGS: Eterna round: R107; input ligand: FMN 200 uM
OBSERVABLE: apparent KD of K4 kissing-loop reporter

SEQUENCE INPUT: GGGUGUAGUGCGGCCGCCACUGUGAUAGUAGAAGAGUAUAGUGAUGUUAUAUAGGAUUAAUAGAAUAGGACCGGGCAUUAGACUU [#24 K4 Tryptophan B Same State]
apparent KD of K4 kissing-loop reporter: 348 nM

SEQUENCE INPUT: UGGAGUUGACGAAAAGUCAACUCCUGAGAAGGAGCGGACGAAAGUCCAGGUAGGUCGCUCACUACCAGUGAUGUUGGUAAUUCAA [#OpenEnded 3]
apparent KD of K4 kissing-loop reporter: 269 nM

SEQUENCE INPUT: GGUGAUGAGCACGAUACCAGCCUCGGAGCCAGUGAUGUUGGCCCAGUUUAGAAUAAGACAGGCCCUUGGCAGCGUGACGAUGGCU [Inorusre]
apparent KD of K4 kissing-loop reporter: 885 nM

Could you now consider this next sequence?
IN: So what does the record say about apparent KD of K4 kissing-loop reporter for GAAUCAUGUAGAAGGAGCGUUAGAAGUUAUAGGGAUGAGUGAUGUUUGUGUUAGUAAAUCUGACAGGUAGGUCGCUACAGAAGGA [KL-SSArg B21 #analogue] ?
OUT: 712 nM

----------
# Tested on: MS2 coat protein
# EXPERIMENTAL PROTOCOL: apparent KD of MS2 coat protein; designed switch direction (-1 OFF switch, 1 ON switch): 1; higher = weaker reporter binding
# SETTINGS: Eterna round: R95; input ligand: microRNA oligo, concentration not stated
Values of apparent KD of MS2 coat protein greater than or equal to 50 nM map to T; values below map to F.

Solved cases below.
SEQUENCE INPUT: AUAAAACAUGAGGAUCACCCAUGUCAACAAAGUCGAGGAUAUGGGCAAAUAAAAUUAGAACCAGAAGGCGAAUAAU [salish99_ss1_r3_020] (puzzle: Same State 1)
EXPERIMENTAL TARGET: MS2 coat protein
LABEL VALUE: T
//
SEQUENCE INPUT: CGGCGCUGUCGAGAGGAUAUGCGGUGAUGGACAUGAGGAUCACCCAUGUUAGCGAUAGCAUUACGGUAGAAGGCUCCACAGCUGU [Soteed Omei mod 12] (puzzle: Same State 2)
EXPERIMENTAL TARGET: MS2 coat protein
LABEL VALUE: T
//
SEQUENCE INPUT: GAGUUACUAUCUCAGGAUAUCAUGUCAAAGACAUGAGGAUCACCCAUGUACCAGGAAACUGGUUAUGAGAAGGGAGAUAGUAACG [Mat - Same State 2 - Mod - D52] (puzzle: Same State 2)
EXPERIMENTAL TARGET: MS2 coat protein
LABEL VALUE: T

IN: # check: apparent KD of MS2 coat protein of GGAGCCGGCACCGAGGAUAUUCAUAUUAAAACAUGAGGAUCACCCAUGUAGGUCGAAAGACCUUGGGAGAAGGCGGAUCGGCUCG [Xeonanis - 30] (puzzle: Same State 2) is greater than or equal to 50 nM
OUT: T

IN: # check: apparent KD of MS2 coat protein of GUAAGUUCGAUGCUCGUCUCUCCGUACAAACAUGAGGAUCACCCAUGUGAUCGGGAAGUAGCCCGAUCAGUAUGGCC [Teonveenes] (puzzle: Sensor for hsa-mir-208a) is greater than or equal to 50 nM
OUT: F

IN: # check: apparent KD of MS2 coat protein of GCAGUACAUGAGGAUCACCCAUGUCUCUAAAGUCGAGGAUAUGGGCAGGUUAUAUCCGAACCAGAAGGCGAACUGC [SS1 Teenbexe 11] (puzzle: Same State 1) is greater than or equal to 50 nM
OUT: T

IN: # check: apparent KD of MS2 coat protein of AGUCCAGCGAAAGCUGGACAAAAGCAUGUACAUGAGGAUCACCCAUGUUUAUGUACAAGCUUUUUGCUCGUCUUAAA [JL mod - D95 - 11] (puzzle: Sensor for hsa-mir-208a) is greater than or equal to 50 nM
OUT: F

IN: # check: apparent KD of MS2 coat protein of UAGAACAAGCUUUUUGCCCGUCUUAUAUAACAUGAGGAUCACCCAUGUAAGGUGAAAGUUAGAGAGUGGAGGUUGAA [JR_SHM208A_Sub048] (puzzle: Sensor for hsa-mir-208a) is greater than or equal to 50 nM
OUT: T

IN: # check: apparent KD of MS2 coat protein of AUUAAACAUGAGGAUCACCCAUGUCAACAAAGUCGAGGAUAUGGGCAUAUUAUAUAAUAACCAGAAGGCGAAUAAU [salish99_ss1_r3_084] (puzzle: Same State 1) is greater than or equal to 50 nM
OUT: F
